Measured on: VEGFR3 (Homo sapiens)
Sequence (P35916 25-1363): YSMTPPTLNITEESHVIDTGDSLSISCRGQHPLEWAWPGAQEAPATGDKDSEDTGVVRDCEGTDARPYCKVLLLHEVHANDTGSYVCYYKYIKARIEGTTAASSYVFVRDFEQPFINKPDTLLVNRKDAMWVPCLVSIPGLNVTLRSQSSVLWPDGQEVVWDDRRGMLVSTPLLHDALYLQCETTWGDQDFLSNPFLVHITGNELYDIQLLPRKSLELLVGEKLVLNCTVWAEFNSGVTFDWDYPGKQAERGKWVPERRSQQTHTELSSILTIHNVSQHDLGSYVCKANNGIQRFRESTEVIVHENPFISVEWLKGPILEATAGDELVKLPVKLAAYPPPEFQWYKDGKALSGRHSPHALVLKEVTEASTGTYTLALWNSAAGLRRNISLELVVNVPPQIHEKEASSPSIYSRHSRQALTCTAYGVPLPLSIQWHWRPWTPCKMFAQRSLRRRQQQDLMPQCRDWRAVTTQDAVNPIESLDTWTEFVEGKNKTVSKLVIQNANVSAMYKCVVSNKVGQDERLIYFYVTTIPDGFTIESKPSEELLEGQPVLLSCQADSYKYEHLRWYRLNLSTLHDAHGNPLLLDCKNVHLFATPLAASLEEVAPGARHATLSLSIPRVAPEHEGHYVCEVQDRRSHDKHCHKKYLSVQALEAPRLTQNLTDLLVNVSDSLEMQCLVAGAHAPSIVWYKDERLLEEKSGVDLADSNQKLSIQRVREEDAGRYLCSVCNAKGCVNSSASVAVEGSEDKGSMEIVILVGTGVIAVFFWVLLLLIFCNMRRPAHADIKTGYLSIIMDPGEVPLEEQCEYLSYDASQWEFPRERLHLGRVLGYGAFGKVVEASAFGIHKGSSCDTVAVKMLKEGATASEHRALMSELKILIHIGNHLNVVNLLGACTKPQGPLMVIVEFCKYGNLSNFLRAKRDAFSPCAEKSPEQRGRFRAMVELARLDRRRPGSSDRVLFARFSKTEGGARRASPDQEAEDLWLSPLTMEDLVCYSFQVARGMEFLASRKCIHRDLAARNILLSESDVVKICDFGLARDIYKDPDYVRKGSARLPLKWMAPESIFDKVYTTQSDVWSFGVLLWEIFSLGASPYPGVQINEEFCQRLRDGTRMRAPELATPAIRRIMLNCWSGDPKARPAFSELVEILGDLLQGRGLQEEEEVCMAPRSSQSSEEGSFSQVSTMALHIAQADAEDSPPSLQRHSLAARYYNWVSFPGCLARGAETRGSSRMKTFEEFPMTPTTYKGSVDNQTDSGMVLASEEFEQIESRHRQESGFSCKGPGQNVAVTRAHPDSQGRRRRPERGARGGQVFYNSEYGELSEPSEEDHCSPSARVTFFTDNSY
pIC50: −log10 of the molar value.
Property: pIC50

INSERT INTO measurements (smiles_str, measured_on, property, result) VALUES
  ('O=C1c2ccccc2-[n+]2ccc3c([nH]c4ccccc43)c21', 'VEGFR3 (Homo sapiens)', 'pIC50', '5.52 to 5.70');

---

Measured on: TRKA (tropomyosin-related kinase A) (Homo sapiens, UniProt P04629)
Construct: recombinant human cytoplasmic domain (aa 441–796), C-terminal His-tagged
Sequence (P04629 441-796): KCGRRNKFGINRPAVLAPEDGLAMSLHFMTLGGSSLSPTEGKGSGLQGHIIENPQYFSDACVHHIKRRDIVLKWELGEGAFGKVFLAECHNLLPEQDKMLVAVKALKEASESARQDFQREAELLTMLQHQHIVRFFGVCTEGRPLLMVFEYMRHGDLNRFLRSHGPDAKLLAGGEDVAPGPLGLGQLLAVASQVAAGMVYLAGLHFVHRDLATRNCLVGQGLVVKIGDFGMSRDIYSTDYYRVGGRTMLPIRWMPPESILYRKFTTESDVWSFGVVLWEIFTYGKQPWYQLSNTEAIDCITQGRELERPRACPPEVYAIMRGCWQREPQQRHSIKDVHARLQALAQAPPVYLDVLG
Test summary: radiometric kinase assay ([γ-33P]ATP), IC50 at several ATP concentrations, Lineweaver-Burk
pIC50: −log10 of the molar value.
Property: pIC50

INSERT INTO assay_data (smiles_str, measured_on, property, result) VALUES
  ('O=C1c2ccccc2-[n+]2ccc3c([nH]c4ccccc43)c21', 'TRKA (tropomyosin-related kinase A) (Homo sapiens, UniProt P04629)', 'pIC50', '5.52 to 5.70');
